target.or.test.system: UniProtKB P37288
protocol.details: Human vasopressin V1a receptor binding assay
condition.description: 1321N1 cell membranes, [3H]vasopressin; read-out: Ki (nM) on hV1a cell line
test.readout: Ki
Could you kindly put the unit after your number?

Param readout= Ki; system= UniProtKB P37288; entry= `CC(C)C(=O)N[C@@H]1Cc2cc(Cl)ccc2-n2c(nnc2[C@H]2CC[C@H](Oc3ccccn3)CC2)C1` ; returns value.
1.7 nM

State its Ki on UniProtKB P37288: `CN[C@@H]1Cc2cc(Cl)ccc2-n2c(nnc2[C@H]2CC[C@H](Oc3ccccn3)CC2)C1`
0.2 nM

Test system UniProtKB P37288; read-out Ki; what value for O=C([C@H]1CC[C@H](c2nnc3n2-c2ccc(Br)cc2CC(O)C3)CC1)N1CCCCC1 (stereo partly shown) ?
1.9 nM

What reported Ki corresponds to `CCC[C@]1(OCC)CC[C@H](c2nnc3n2-c2ccc(Cl)cc2CC2(C3)OCCO2)CC1` on UniProtKB P37288?
0.7 nM

Value wanted: Ki (UniProtKB P37288) of entry CO[C@H]1Cc2cc(F)ccc2-n2c(nnc2[C@H]2CC[C@H](Oc3ccccn3)CC2)C1 (single isomer, unassigned)
0.3 nM

Lab request: please report Ki under test system UniProtKB P37288 for `O=C([C@H]1CC[C@H](c2nnc3n2-c2ccc(Cl)cc2CC2(C3)OCCO2)CC1)N1CCOCC1`
0.2 nM

Param readout= Ki; system= UniProtKB P37288; entry= CC(C)(C)OC(=O)NC1Cc2cc(Cl)ccc2-n2c(nnc2N2CCC(N3CCCCC3)CC2)C1 (stereo not shown) ; returns value.
547 nM

---

target.or.test.system: UniProt P37288
protocol.details: Human vasopressin V1a receptor binding assay
condition.description: 1321N1 cell membranes, [3H]vasopressin; read-out: Ki (nM) on hV1a cell line
Method: Human Vasopressin V1a Receptor Binding Assay Cells were suspended in preparative buffer (50 mM Tris, 1 mM EDTA, 0.1 mM PMSF) and homogenized with glass homogenizing potter. […] Non-specific binding values were determined in the presence of unlabeled 1.2×10^−6 M (Arg^8)-vasopressin. […] Finally, radioactivity was measured using MicroBeta^2 Microplate Counter (Perkin Elmer). During fitting, the asymptotes are not fixed. […] The KD is determined beforehand using the Scatchard curve.
test.readout: Ki (nM)
Give the number; nM is assumed, so skip it.

Quick check: Ki of CC(C)NC1Cc2cc(Cl)ccc2-n2c(nnc2C2CCN(c3ccccn3)CC2)C1 (stereo not shown) ?
2.9

# lookup: Ki of OC1Cc2cc(Cl)ccc2-n2c(nnc2N2CCC3(CC2)OCc2ccccc23)C1 (stereo not shown)
0.7

Find the recorded Ki belonging to CC(C)NC1Cc2cc(Br)ccc2-n2c(nnc2[C@H]2CC[C@H](Oc3ccccn3)CC2)C1 (stereo partly shown) and report it.
0.9

Record request: Ki value, item COC1Cc2cc(Cl)ccc2-n2c(nnc2[C@H]2CC[C@H](N3CCN(C)CC3)CC2)C1 (stereo partly shown)
19

---

target.or.test.system: UniProtKB P37288
protocol.details: Functional assay on human vasopressin V1a receptor expressing cell line (intracellular Ca2+ fluorescence)
Type: cell-based
condition.description: 1321N1 cells, (Arg8)-vasopressin at EC80; read-out: IC50 (nM) on hV1a cell line
Counter-ions that a name gives are not always drawn.
Classes by IC50: interval 1 = under 6 nM, interval 2 = from 6 nM up to 100 nM, interval 3 = 100 nM and over

For COc1ccc2c(c1)CC(N)Cc1nnc([C@H]3CC[C@H](Oc4ccccn4)CC3)n1-2 (stereo partly drawn) [Example 31, hydrochloride] , which IC50 bin applies?
interval 3

Which bin should I file FC(F)(F)c1ccc2c(c1)CC(OCC1CC1)Cc1nnc([C@H]3CC[C@H](Oc4ccccn4)CC3)n1-2 (stereo partly drawn) under?
interval 2

GET /class?item= `CC(C)(C)C(=O)N[C@@H]1Cc2cc(Cl)ccc2-n2c(nnc2[C@H]2CC[C@H](Oc3ccccn3)CC2)C1`
interval 2

For the record `Clc1ccc2c(c1)CC1(Cc3nnc([C@H]4CC[C@H](Oc5ccccn5)CC4)n3-2)OCCCCO1` , report the class its IC50 corresponds to.
interval 1

Band of OC1Cc2cc(Cl)ccc2-n2c(nnc2N2CCC(c3ncccc3Cl)CC2)C1 (stereo not drawn) ?
interval 2

State the class of the compound shown: COC1(C)CCC(c2nnc3n2-c2ccc(Cl)cc2CC(NC(C)C)C3)CC1 (mixture of isomers)
interval 3

Category of CN(C)C(=O)NC1Cc2cc(Cl)ccc2-n2c(nnc2[C@H]2CC[C@H](Oc3ccccn3)CC2)C1 (stereo partly drawn) , please.
interval 2

Which category fits this record: NC1Cc2cc(Cl)ccc2-n2c(nnc2[C@H]2CC[C@H](N3CCOCC3)CC2)C1 (stereo partly drawn)
interval 3

Quick check: band for `Brc1ccc2c(c1)CC1(Cc3nnc([C@H]4CC[C@H](Oc5ccccn5)CC4)n3-2)OCCO1`
interval 1

Which IC50 category applies to `N[C@@H]1Cc2cc(Cl)ccc2-n2c(nnc2[C@H]2CC[C@H](Oc3ccccn3)CC2)C1` here?
interval 2

Which band does NC1Cc2cc(Cl)ccc2-n2c(nnc2C2CCN(c3ccccn3)CC2)C1 (stereo not drawn) fall in?
interval 3

Into which bin does this compound go? NCC(=O)NC1Cc2cc(Cl)ccc2-n2c(nnc2[C@H]2CC[C@H](Oc3ccccn3)CC2)C1 (stereo partly drawn)
interval 2

Determine which band this compound sits in: `CC(C)C(=O)N[C@@H]1Cc2cc(Cl)ccc2-n2c(nnc2[C@H]2CC[C@H](Oc3ccccn3)CC2)C1`
interval 1

Returns: class label. Input: CO[C@H]1Cc2cc(Cl)ccc2-n2c(nnc2[C@H]2CC[C@H](Oc3ccccn3)CC2)C1 (single isomer, unassigned)
interval 1

---

target.or.test.system: mouse V1a receptor (Mus musculus, UniProt Q62463)
Sequence (Q62463 whole entry): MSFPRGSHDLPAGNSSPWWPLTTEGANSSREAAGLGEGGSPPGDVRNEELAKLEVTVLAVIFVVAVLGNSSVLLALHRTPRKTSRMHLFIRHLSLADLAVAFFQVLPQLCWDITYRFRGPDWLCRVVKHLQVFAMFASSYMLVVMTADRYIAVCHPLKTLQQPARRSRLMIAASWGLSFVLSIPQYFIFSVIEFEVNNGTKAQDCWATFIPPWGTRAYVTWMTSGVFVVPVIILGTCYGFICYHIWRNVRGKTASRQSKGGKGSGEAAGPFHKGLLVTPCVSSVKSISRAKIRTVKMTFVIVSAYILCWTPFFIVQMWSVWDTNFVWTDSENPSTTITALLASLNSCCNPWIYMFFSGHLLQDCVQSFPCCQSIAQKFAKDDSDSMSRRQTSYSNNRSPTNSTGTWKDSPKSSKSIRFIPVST
protocol.details: Functional V1a in vivo test: inhibition of oxytocin-induced scratching behaviour
condition.description: mice, 10 mg/kg p.o. pretreatment
Please respond with reported inhibition (%) of oxytocin-induced scratching behaviour response for every item in the list.
Provide only the numeric value, understood in %.

Reported inhibition (%) of oxytocin-induced scratching behaviour response for OC1Cc2cc(Cl)ccc2-n2c(nnc2[C@H]2CC[C@H](Oc3ccccn3)CC2)C1 (stereo partly shown) : what is it?
91

Please give the measured inhibition (%) of oxytocin-induced scratching behaviour response for this compound: `Clc1ccc2c(c1)CC1(Cc3nnc([C@H]4CC[C@H](Oc5ccccn5)CC4)n3-2)OCCCO1`
79

Item `N[C@@H]1Cc2cc(Cl)ccc2-n2c(nnc2[C@H]2CC[C@H](Oc3ccccn3)CC2)C1` has what recorded inhibition (%) of oxytocin-induced scratching behaviour response?
64

# query: inhibition (%) of oxytocin-induced scratching behaviour response of entry `CCN[C@@H]1Cc2cc(Cl)ccc2-n2c(nnc2[C@H]2CC[C@H](Oc3ccccn3)CC2)C1`
60

---

target.or.test.system: human vasopressin V1a receptor (Homo sapiens)
protocol.details: Functional assay on human vasopressin V1a receptor expressing cell line (intracellular Ca2+ fluorescence)
Format: cell-based
condition.description: 1321N1 cells, (Arg8)-vasopressin at EC80; read-out: IC50 (nM) on hV1a cell line
test.readout: IC50 (nM)
Form entry: value (nM) — number only.

Look at this compound and give its reported IC50. CCC[C@]1(OC)CC[C@@H](c2nnc3n2-c2ccc(Cl)cc2CC2(C3)OCCO2)CC1 [Example 243]
2.8

Record request: IC50 value, item COCCOC1Cc2cc(Cl)ccc2-n2c(nnc2[C@H]2CC[C@H](Oc3ccccn3)CC2)C1 (stereo partly shown) [Example 202]
1

Please look up its IC50: CN(C)C1Cc2cc(Cl)ccc2-n2c(nnc2[C@H]2CC[C@H](Oc3ccccn3)CC2)C1 (stereo partly shown) [Example 22]
2.8

Given CN1CCC(C(=O)N[C@H]2Cc3cc(Cl)ccc3-n3c(nnc3[C@H]3CC[C@H](Oc4ccccn4)CC3)C2)CC1 [Example 200] , state its recorded IC50.
1190

---

For each entry below, report its IC50 value.
target.or.test.system: human vasopressin V1a receptor (Homo sapiens, UniProt P37288)
Sequence (P37288 whole entry): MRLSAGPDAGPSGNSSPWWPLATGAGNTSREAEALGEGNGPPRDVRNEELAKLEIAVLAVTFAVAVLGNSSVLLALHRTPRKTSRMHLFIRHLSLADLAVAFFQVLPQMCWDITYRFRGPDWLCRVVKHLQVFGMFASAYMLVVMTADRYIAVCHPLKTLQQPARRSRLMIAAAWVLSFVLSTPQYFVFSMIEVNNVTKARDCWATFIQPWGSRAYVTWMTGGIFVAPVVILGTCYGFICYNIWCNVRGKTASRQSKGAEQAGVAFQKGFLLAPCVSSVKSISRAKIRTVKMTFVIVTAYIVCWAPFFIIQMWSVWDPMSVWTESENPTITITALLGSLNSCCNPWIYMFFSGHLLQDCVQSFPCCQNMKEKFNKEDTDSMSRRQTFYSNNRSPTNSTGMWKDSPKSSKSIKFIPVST
protocol.details: Functional assay on human vasopressin V1a receptor expressing cell line (intracellular Ca2+ fluorescence)
Type: cell-based
condition.description: 1321N1 cells, (Arg8)-vasopressin at EC80; read-out: IC50 (nM) on hV1a cell line
# unit: nM | format: bare number

Need IC50, item `CN(C)CCN[C@@H]1Cc2cc(Cl)ccc2-n2c(nnc2[C@H]2CC[C@H](Oc3ccccn3)CC2)C1`
22

Dear colleague, I am looking for the recorded IC50 of the following compound: `Clc1ccc2c(c1)C[C@@H](N1CCCC1)Cc1nnc([C@H]3CC[C@H](Oc4ccccn4)CC3)n1-2`
3

Item `O=C1Cc2cc(Cl)ccc2-n2c(nnc2[C@H]2CC[C@H](Oc3ccccn3)CC2)C1` has what recorded IC50?
1.2

Sample `Clc1ccc2c(c1)CC1(Cc3nnc(N4CCN(c5ccccn5)CC4)n3-2)OCCO1` — what was its IC50?
1.2

Looking for the measured IC50 of `N[C@H]1Cc2cc(Cl)ccc2-n2c(nnc2[C@H]2CC[C@H](Oc3ccccn3)CC2)C1` , can you help?
20

Please look up its IC50: `C=CC(=O)N[C@H]1Cc2cc(Cl)ccc2-n2c(nnc2[C@H]2CC[C@H](Oc3ccccn3)CC2)C1`
39

Which IC50 value is on record for `O=C1Cc2cc(C(F)(F)F)ccc2-n2c(nnc2[C@H]2CC[C@H](Oc3ccccn3)CC2)C1` ?
340

Can you share its IC50? I mean this compound: `OCCN[C@@H]1Cc2cc(Cl)ccc2-n2c(nnc2[C@H]2CC[C@H](Oc3ccccn3)CC2)C1`
2.7

What does the record list as IC50 for `CO[C@]1(C)CC[C@H](c2nnc3n2-c2ccc(Cl)cc2CC2(C3)OCCCO2)CC1` ?
2.7

I have this compound here, `Fc1ccc(CN[C@H]2Cc3cc(Cl)ccc3-n3c(nnc3[C@H]3CC[C@H](Oc4ccccn4)CC3)C2)cc1` , and I need its recorded IC50.
44

What value of IC50 has been reported for the following compound? `CN1C[C@]2(CC[C@H](c3nnc4n3-c3ccc(Cl)cc3CC3(C4)OCCO3)CC2)OC1=O`
3.3

Which IC50 is reported for this compound? COC1Cc2cc(Cl)ccc2-n2c(nnc2[C@@H]2CCN(Cc3cccnc3)C2)C1 (stereo partly drawn)
30

Endpoint output: IC50 of `CC(C)N[C@@H]1Cc2cc(Cl)ccc2-n2c(nnc2[C@H]2CC[C@H](Oc3ccccn3)CC2)C1` . Value?
4.5

I have this compound here, CC(C)(C)OC(=O)NC1Cc2cc(F)ccc2-n2c(nnc2[C@H]2CC[C@H](Oc3ccccn3)CC2)C1 (stereo partly drawn) , and I need its recorded IC50.
156

Record request: IC50 value, item CC(=O)OC1Cc2cc(Cl)ccc2-n2c(nnc2[C@H]2CC[C@H](Oc3ccccn3)CC2)C1 (stereo partly drawn)
1.6

Can you look up the measured IC50 of CC[C@]1(OC)CC[C@H](c2nnc3n2-c2ccc(Cl)cc2CC(N(C)C)C3)CC1 (stereo partly drawn) for me?
53

What value of IC50 has been reported for the following compound? CNC1Cc2cc(Cl)ccc2-n2c(nnc2[C@H]2CC[C@H](Oc3ccccn3)CC2)C1 (stereo partly drawn)
4

Which value of IC50 has been reported for CO[C@@H]1Cc2cc(F)ccc2-n2c(nnc2[C@H]2CC[C@H](Oc3ccccn3)CC2)C1 (single isomer, unassigned) in the records?
1.1

Quick one: IC50 of `CC(C)(O)C(=O)N[C@H]1Cc2cc(Cl)ccc2-n2c(nnc2[C@H]2CC[C@H](Oc3ccccn3)CC2)C1` ?
216

Given the compound `CN(C)CCC(=O)N[C@H]1Cc2cc(Cl)ccc2-n2c(nnc2[C@H]2CC[C@H](Oc3ccccn3)CC2)C1` , what is its reported IC50?
307

Could you tell me which IC50 is on file for `CC[C@]1(OC)CC[C@H](c2nnc3n2-c2ccc(Cl)cc2CC2(C3)OCCO2)CC1` ?
2.6

Endpoint output: IC50 of COC1Cc2cc(Cl)ccc2-n2c(nnc2C2CCN(C(=O)OC(C)(C)C)CC2)C1 (stereo not drawn) . Value?
57

What value of IC50 has been reported for the following compound? `CN(C)[C@H]1CC[C@H](c2nnc3n2-c2ccc(Cl)cc2CC2(C3)OCCO2)CC1`
105

Tell me the measured IC50 of `O[C@@H]1Cc2cc(Cl)ccc2-n2c(nnc2[C@H]2CC[C@H](Oc3ccccn3)CC2)C1` , please.
1.8

# IC50 lookup, item `Fc1ccc2c(c1)CC1(Cc3nnc([C@H]4CC[C@H](C(F)(F)F)CC4)n3-2)OCCO1`
15

I'd like to know its IC50. The compound in question is `O=C([C@H]1CC[C@H](c2nnc3n2-c2ccc(Cl)cc2CC2(C3)OCCO2)CC1)N1CCCC1`
1.2

Item CC(C)C(=O)NC1Cc2cc(Cl)ccc2-n2c(nnc2C2CCN(c3ccccn3)CC2)C1 (stereo not drawn) has what recorded IC50?
825

// IC50 lookup, key: CC(C)N(C)C1Cc2cc(Cl)ccc2-n2c(nnc2[C@H]2CC[C@H](Oc3ccccn3)CC2)C1 (stereo partly drawn)
5

Given the compound COC1Cc2cc(Cl)ccc2-n2c(nnc2C2CCN([C@H]3CCOC3)CC2)C1 (stereo partly drawn) , what is its reported IC50?
323

Query: IC50; subject: CC(C)OC1Cc2cc(Cl)ccc2-n2c(nnc2[C@H]2CC[C@H](Oc3ccccn3)CC2)C1 (stereo partly drawn)
1.4
